system name: CDK3/Cyclin E (Homo sapiens) (UniProt P24864+Q00526);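 further: each figure is a mean percent inhibition of the CDK3/cyclin E complex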
Sequence (P24864 whole entry, looked up): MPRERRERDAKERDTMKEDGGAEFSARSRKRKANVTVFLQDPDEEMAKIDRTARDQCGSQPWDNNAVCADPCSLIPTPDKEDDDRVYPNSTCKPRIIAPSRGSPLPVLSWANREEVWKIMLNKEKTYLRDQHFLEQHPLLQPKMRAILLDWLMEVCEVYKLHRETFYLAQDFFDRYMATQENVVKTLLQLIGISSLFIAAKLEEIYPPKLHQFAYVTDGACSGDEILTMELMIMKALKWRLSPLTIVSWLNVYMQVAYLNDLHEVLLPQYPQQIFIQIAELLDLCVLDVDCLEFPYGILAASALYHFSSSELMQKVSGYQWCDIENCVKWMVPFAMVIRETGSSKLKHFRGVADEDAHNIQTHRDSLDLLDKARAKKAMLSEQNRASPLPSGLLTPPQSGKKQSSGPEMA
Sequence (Q00526 whole entry, looked up): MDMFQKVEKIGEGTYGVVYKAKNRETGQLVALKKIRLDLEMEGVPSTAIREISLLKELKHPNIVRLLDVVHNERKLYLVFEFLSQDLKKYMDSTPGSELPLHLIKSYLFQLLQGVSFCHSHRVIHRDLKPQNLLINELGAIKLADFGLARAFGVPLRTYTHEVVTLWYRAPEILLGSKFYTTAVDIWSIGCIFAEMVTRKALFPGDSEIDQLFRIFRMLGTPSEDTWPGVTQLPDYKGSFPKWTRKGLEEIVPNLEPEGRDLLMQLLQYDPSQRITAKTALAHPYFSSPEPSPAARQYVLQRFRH
stated conditions: at 1 µM
// reported inhibition for each item listed
Numeric only. Scale: %

Past entries and their recorded results:
• NCc1ccc(-c2nc(-c3ccc(Cl)c(O)c3)c(-c3ccncc3)[nH]2)cc1 = -2.19
• COc1cc2ncn(-c3cc(OCc4ccccc4C(F)(F)F)c(C(N)=O)s3)c2cc1OC = -0.14
• O=C1NC(=O)C(c2ccccc2Cl)=C1Nc1cccc(O)c1 = 19.4
• COc1ccc(COc2ccc(Cc3cnc(N)nc3N)cc2OC)cc1 = 1.92
• CCn1c(-c2nonc2N)nc2c(C#CC(C)(C)O)nc(CN3CCCC3)cc21 = -0.95
• CCc1cccc(NC(=O)Nc2ccc(Oc3ccc4nc(NC(=O)OC)[nH]c4c3)cc2)c1 = -1.16
• CN1CCC(C(=O)Nc2n[nH]c3nnc(-c4ccccc4)cc23)CC1 = 5.97
• O=C1NC(=O)C(c2ccc(Cl)cc2)=C1Nc1ccc(Cl)c(C(=O)O)c1 = 1.13

Please fill in: inhibition reported for `COc1cc(C=NNc2ncnc3c2cnn3-c2ccccc2)ccc1O` = 12.7

Please fill in: inhibition reported for `CC(C)=Cc1cccc2c1/C(=N/Nc1ccc(S(N)(=O)=O)cc1)C(=O)N2` = 99.1

Please fill in: inhibition reported for `CCn1c(-c2nonc2N)nc2cncc(C(=O)N3CCNCC3)c21` = 0.54
